Data credit: patent US20240376101A1

experiment notes: Human liver microsome metabolism study
Type: in vitro ADME
condition details: in-vitro intrinsic clearance, human liver microsomes
result type: microsomal CLint at 1 μM
State the result as a value with its unit after it.

Look up and state reported microsomal CLint at 1 μM for "CCOc1ncc(C)c2c1[C@H](c1ccc(C#N)cc1OC)C(C(N)=O)=C(C)N2" 93.7 µL/min/mg

###

experiment notes: Human liver microsome metabolism study
Type: in vitro ADME
condition details: in-vitro half-life, human liver microsomes
result type: half-life at 1 μM (min)
Lab book: enter the figure in min, no units written.

Look up and state reported half-life at 1 μM for CCOc1ncc(C)c2c1[C@H](c1ccc(C#N)cc1OC)C(C(N)=O)=C(C)N2 [Finerenone] 7.4
